Recorded values, source the Immune Epitope Database (IEDB).

- targetOrSystem: HLA-B*07:02
- procedureSummary: IEDB peptide-MHC binding, purified MHC/competitive/fluorescence; bounds were set here for any values at or beyond the usual limits of such assays
- conditionSummary: source organism: Zaire ebolavirus
pIC50: −log10 of the molar value.
resultType: pIC50

1) NIKRTLAAM; ≤ 3.89

* * *

- targetOrSystem: HLA-B*15:01
- procedureSummary: IEDB peptide-MHC binding, purified MHC/direct/fluorescence; filed as Kd, often an IC50 or EC50 that approximates it; bounds were set here for any values at or beyond the usual limits of such assays
- conditionSummary: source organism: Mycobacterium tuberculosis
resultType: Kd

1. AVFPRYHPR; ≥ 20 µM

* * *

- targetOrSystem: HLA-B*58:01
- procedureSummary: IEDB peptide-MHC binding, purified MHC/competitive/fluorescence; bounds were set here for any values at or beyond the usual limits of such assays
- conditionSummary: source organism: Homo sapiens
pIC50: −log10 of the molar value.
resultType: pIC50

1. MASSPTSI; 6.01

* * *

- targetOrSystem: HLA-A*01:01
- procedureSummary: IEDB peptide-MHC binding, purified MHC/competitive/radioactivity; filed as Kd, often an IC50 or EC50 that approximates it; bounds were set here for any values at or beyond the usual limits of such assays
- conditionSummary: source organism: Mammarenavirus guanaritoense
pKd: −log10 of the molar value.
resultType: pKd

1) TDSPETHHY; 4.77

* * *

- targetOrSystem: HLA-A*23:01
- procedureSummary: IEDB peptide-MHC binding, purified MHC/direct/fluorescence; filed as Kd, often an IC50 or EC50 that approximates it; bounds were set here for any values at or beyond the usual limits of such assays
- conditionSummary: source organism: Influenza A virus H3N2
resultType: Kd

1) AVDADDSHF; ≥ 20 µM

* * *

- targetOrSystem: HLA-A*24:02
- procedureSummary: IEDB peptide-MHC binding, purified MHC/competitive/fluorescence; filed as Kd, often an IC50 or EC50 that approximates it; bounds were set here for any values at or beyond the usual limits of such assays
- conditionSummary: source organism: Vibrio vulnificus YJ016
resultType: Kd

1. YYGRWVHEF; ≤ 0.1 nM

* * *

Collected pKd values appear next to each entry.
- targetOrSystem: HLA-B*18:01
- procedureSummary: IEDB peptide-MHC binding, purified MHC/competitive/fluorescence; filed as Kd, often an IC50 or EC50 that approximates it; bounds were set here for any values at or beyond the usual limits of such assays
- conditionSummary: source organism: Zaire ebolavirus
pKd: −log10 of the molar value.
resultType: pKd

1) TTIGEWAFW; ≤ 4.70
2) LSDAIFDDL; ≤ 4.70
3) FLSFASLFL; ≤ 4.70

* * *

- targetOrSystem: HLA-C*03:03
- procedureSummary: IEDB peptide-MHC binding, purified MHC/direct/fluorescence; filed as Kd, often an IC50 or EC50 that approximates it; bounds were set here for any values at or beyond the usual limits of such assays
- conditionSummary: source organism: Yersinia pestis Nepal516
resultType: Kd

1. FASASSYAI; ≤ 1 nM

* * *

- targetOrSystem: HLA-A*23:01
- procedureSummary: IEDB peptide-MHC binding, purified MHC/direct/fluorescence; filed as Kd, often an IC50 or EC50 that approximates it; bounds were set here for any values at or beyond the usual limits of such assays
- conditionSummary: source organism: Reston ebolavirus
pKd: −log10 of the molar value.
resultType: pKd

1) GVPPKVVSY; ≤ 4.70

* * *

- targetOrSystem: HLA-B*27:05
- procedureSummary: IEDB peptide-MHC binding, purified MHC/competitive/fluorescence; filed as Kd, often an IC50 or EC50 that approximates it; bounds were set here for any values at or beyond the usual limits of such assays
- conditionSummary: source organism: Influenza A virus (A/Harbin/1/1988(H1N2))
resultType: Kd

1) GRINYYWTL; 49 nM

* * *

- targetOrSystem: HLA-A*26:01
- procedureSummary: IEDB peptide-MHC binding, purified MHC/competitive/fluorescence; filed as Kd, often an IC50 or EC50 that approximates it; bounds were set here for any values at or beyond the usual limits of such assays
- conditionSummary: source organism: Vibrio cholerae O395
pKd: −log10 of the molar value.
resultType: pKd

1) RVHFHRFMY; ≤ 4.70

* * *

- targetOrSystem: HLA-B*27:05
- procedureSummary: IEDB peptide-MHC binding, purified MHC/direct/fluorescence; filed as Kd, often an IC50 or EC50 that approximates it; bounds were set here for any values at or beyond the usual limits of such assays
- conditionSummary: source organism: Giardia lamblia ATCC 50803
The reader will find reported Kd values listed item by item below.
resultType: Kd

1. SVKERGPAY; ≥ 20 µM
2. RPRGHREFC; ≥ 20 µM
3. LPVFATIGL; ≥ 20 µM

* * *

- targetOrSystem: HLA-A*03:01
- procedureSummary: IEDB peptide-MHC binding, purified MHC/direct/fluorescence; filed as Kd, often an IC50 or EC50 that approximates it; bounds were set here for any values at or beyond the usual limits of such assays
- conditionSummary: source organism: Influenza A virus (A/duck/Mongolia/47/2001(H7N1))
pKd: −log10 of the molar value.
resultType: pKd

1. THFQRKRRV; ≤ 4.70

* * *

- targetOrSystem: HLA-A*02:50
- procedureSummary: IEDB peptide-MHC binding, purified MHC/competitive/fluorescence; filed as Kd, often an IC50 or EC50 that approximates it; bounds were set here for any values at or beyond the usual limits of such assays
- conditionSummary: source organism: Yersinia pestis Nepal516
pKd: −log10 of the molar value.
resultType: pKd

1. GMFIIFIPI; 6.40

* * *

- targetOrSystem: HLA-B*57:01
- procedureSummary: IEDB peptide-MHC binding, purified MHC/competitive/fluorescence; filed as Kd, often an IC50 or EC50 that approximates it; bounds were set here for any values at or beyond the usual limits of such assays
- conditionSummary: source organism: Escherichia coli O139:H28 str. E24377A
pKd: −log10 of the molar value.
resultType: pKd

1. SIPFGLMSA; ≤ 4.70

* * *

- targetOrSystem: HLA-B*58:01
- procedureSummary: IEDB peptide-MHC binding, purified MHC/competitive/radioactivity; filed as Kd, often an IC50 or EC50 that approximates it; bounds were set here for any values at or beyond the usual limits of such assays
- conditionSummary: source organism: Dengue virus 2 Peru/IQT2913/1996
pKd: −log10 of the molar value.
resultType: pKd

1. LTSKELMMTT; 6.37

* * *

- targetOrSystem: HLA-B*58:01
- procedureSummary: IEDB peptide-MHC binding, purified MHC/direct/fluorescence; filed as Kd, often an IC50 or EC50 that approximates it; bounds were set here for any values at or beyond the usual limits of such assays
- conditionSummary: source organism: Vibrio cholerae
pKd: −log10 of the molar value.
resultType: pKd

1) AENKKFKLH; ≤ 4.70

* * *

- targetOrSystem: HLA-B*45:06
- procedureSummary: IEDB peptide-MHC binding, purified MHC/competitive/fluorescence; filed as Kd, often an IC50 or EC50 that approximates it; bounds were set here for any values at or beyond the usual limits of such assays
- conditionSummary: source organism: West Nile virus
resultType: Kd

1. ETTNWLWTF; ≥ 5 µM

* * *

- targetOrSystem: HLA-A*11:01
- procedureSummary: IEDB peptide-MHC binding, purified MHC/competitive/fluorescence; bounds were set here for any values at or beyond the usual limits of such assays
- conditionSummary: source organism: Zaire ebolavirus
resultType: IC50

1) VQQGIVRQR; 8.37 µM
2) ASLPKTSGH; 2.61 µM
3) ATTAAGPPK; 0.762 µM
4) AIGLAWIPY; 61.4 µM

* * *

- targetOrSystem: HLA-C*14:02
- procedureSummary: IEDB peptide-MHC binding, purified MHC/direct/fluorescence; filed as Kd, often an IC50 or EC50 that approximates it; bounds were set here for any values at or beyond the usual limits of such assays
- conditionSummary: source organism: human gammaherpesvirus 4
pKd: −log10 of the molar value.
resultType: pKd

1) MMAKSNSPF; 8.10

* * *

- targetOrSystem: HLA-B*46:01
- procedureSummary: IEDB peptide-MHC binding, purified MHC/direct/fluorescence; filed as Kd, often an IC50 or EC50 that approximates it; bounds were set here for any values at or beyond the usual limits of such assays
- conditionSummary: source organism: Escherichia coli O157:H7
resultType: Kd

1) RGRGVAIHR; ≥ 20 µM

* * *

- targetOrSystem: HLA-B*51:01
- procedureSummary: IEDB peptide-MHC binding, purified MHC/competitive/radioactivity; filed as Kd, often an IC50 or EC50 that approximates it; bounds were set here for any values at or beyond the usual limits of such assays
- conditionSummary: source organism: Dengue virus 2 Jamaica/1409/1983
resultType: Kd (µM)

1. LAVWNRVWI; 4.95

* * *

- targetOrSystem: HLA-A*03:01
- procedureSummary: IEDB peptide-MHC binding, purified MHC/competitive/fluorescence; filed as Kd, often an IC50 or EC50 that approximates it; bounds were set here for any values at or beyond the usual limits of such assays
- conditionSummary: source organism: Yersinia mollaretii ATCC 43969
pKd: −log10 of the molar value.
resultType: pKd

1. MMWIPGWFG; ≤ 4.70
